tested_target: human σ2/TMEM97 receptor (Homo sapiens, UniProt Q5BJF2)
Sequence (Q5BJF2 whole entry): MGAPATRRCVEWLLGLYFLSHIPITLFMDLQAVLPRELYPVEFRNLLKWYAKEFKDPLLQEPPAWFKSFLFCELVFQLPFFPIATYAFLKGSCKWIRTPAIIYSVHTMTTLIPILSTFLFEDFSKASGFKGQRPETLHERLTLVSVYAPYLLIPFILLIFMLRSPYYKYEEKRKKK
test_method_notes: Binding assay to human σ2/TMEM97 receptor
test_context: transfected HEK-293 membranes, 10 nM [3H]-DTG, 25° C. 120 minutes; + may also stand for 1-50% inhibition at 1 or 10 μM; read-out: Binding σ-2 Ki
pKi: −log10 of the molar value.
quantity_name: pKi

# smiles_entry, test_value
measured = [
    ("CN(Cc1ccccc1)C1CCN(S(=O)(=O)c2ccc(N3CCOCC3)nc2)CC1", "6.30 to 7.00"),
]

Quick one: give me pKi for each item below, same order please.
1. O=S(=O)(c1ccc(N2CCOCC2)nc1)N1CCC2(CC1)CN(Cc1ccccc1)C2
2. O=C1OCCN1c1ccc(S(=O)(=O)N2CCC3(CCCN(Cc4ccccc4)C3)CC2)cn1
3. COC1CCN(c2ccc(S(=O)(=O)N[C@@H]3CCN(Cc4ccccc4)C3)cn2)CC1
4. O=C1OCCN1c1ccc(S(=O)(=O)N2CCC3(CCN(Cc4ccccc4F)CC3)C2)cn1
5. CC(C)(C)CCN1CCC2(CC1)CCN(S(=O)(=O)c1ccc(N3CCOCC3=O)nc1)CC2
6. O=S(=O)(c1ccc(N2CCC(F)(F)CC2)nc1)N1CCC2(CCN(Cc3ccccc3)CC2)CC1
7. O=C1OCCN1c1ccc(S(=O)(=O)N2CCC3(CCN(CC4CCOCC4)CC3)C2)cn1
8. CNc1ccc(S(=O)(=O)N2CCCC3(CCN(CCC(C)(C)C)CC3)C2)cn1

1. 6.30 to 7.00
2. 6.30 to 7.00
3. < 6.00
4. 6.30 to 7.00
5. > 7.00
6. > 7.00
7. > 7.00
8. > 7.00

Quick one: give me pKi for each item below, same order please.
1. O=C1OCCN1c1ccc(S(=O)(=O)N2CCC3(CCN(Cc4cc(F)ccc4F)CC3)C2)cn1
2. O=S(=O)(N[C@@H]1CCN(Cc2ccccc2)C1)c1cnc(N2CCOCC2)c(F)c1
3. CC(C)(C)CCN1CCC2(CC1)CCN(S(=O)(=O)c1cnc(N3CCOC3=O)c(F)c1)CC2
4. CC(C)(C)CCN1CCC2(CCCN(S(=O)(=O)c3ccc(N4CCCC4=O)nc3)C2)CC1
5. CN(CC(C)(C)C)[C@H]1CC[C@H](NS(=O)(=O)c2ccc(N3CCC4(CCOC4)CC3)nc2)CC1

["> 7.00", "6.00 to 6.30", "> 7.00", "> 7.00", "6.00 to 6.30"]

Quick one: give me pKi for each item below, same order please.
1. O=S(=O)(N[C@H]1CCN(Cc2cccc(F)c2)C1)c1ccc(N2CCOCC2)nc1
2. CN(CCc1ccccc1)C1CCN(S(=O)(=O)c2ccc(N3CCOCC3)nc2)CC1

1. < 6.00
2. 6.30 to 7.00
